- TARGET: Avi-KRAS G12V (1-169) GppNHp/RAF1 RBD-3xFLAG (52-151) (Homo sapiens, UniProt P01116, G12V)
- Construct: Avi-KRAS G12V (1-169)
- Sequence (P01116 1-169 isoform P01116-2 G12V): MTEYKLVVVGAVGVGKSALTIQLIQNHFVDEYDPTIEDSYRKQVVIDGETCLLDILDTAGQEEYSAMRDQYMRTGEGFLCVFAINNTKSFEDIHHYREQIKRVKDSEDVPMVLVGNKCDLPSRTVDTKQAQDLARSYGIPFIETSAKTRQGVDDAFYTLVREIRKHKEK
- METHOD_SUMMARY: Raf1-KRAS G12V-GppNHP disruption HTRF assay (Biological Example 1)
- Format: binding
- CONDITION_NOTES: KRAS G12V, GppNHp-loaded; class symbols
MEASUREMENT_KIND: IC50

- COMPOUND: "CC(=O)N1CC[C@H](N(CCF)c2nc(OC[C@@]34CCCN3C[C@H](F)C4)nc3c(F)c(-c4ccc(F)c5sc(N)c(C#N)c45)c(C(F)(F)F)cc23)C1 (atropisomer, axis not shown) [Compound 622]"
  IC50: "< 100 nM"
- COMPOUND: "CCN(c1nc(OC[C@@]23CCCN2C[C@H](F)C3)nc2c(F)c(-c3ccc(F)c4sc(N)c(C#N)c34)c(C(F)(F)F)cc12)[C@H]1C[C@H]2CN(C3CC3)C(=O)N2C1 (atropisomer, axis not shown) [Compound 775]"
  IC50: "< 100 nM"
- COMPOUND: "CCN(c1nc(OC[C@@]23CCCN2C[C@H](F)C3)nc2c(F)c(-c3ccc(F)c4sc(N)c(C#N)c34)c(C(F)(F)F)cc12)[C@H]1CCN(C(=O)c2ccn(C)n2)C1 (atropisomer, axis not shown) [Compound 724]"
  IC50: "< 100 nM"
- COMPOUND: "CCN1C[C@@H](N(CC)c2nc(OC[C@@]34CCCN3C[C@H](F)C4)nc3c(F)c(-c4ccc(F)c5sc(N)c(C#N)c45)c(C(F)(F)F)cc23)CC1=O (atropisomer, axis not shown) [Compound 634]"
  IC50: "< 100 nM"
- COMPOUND: "CCN(c1nc(OC[C@@]23CCCN2C[C@H](F)C3)nc2c(F)c(-c3ccc(F)c4sc(N)c(C#N)c34)c(C(F)(F)F)cc12)[C@H]1CCN(C(=O)[C@H](C)CF)C1 (atropisomer, axis not shown) [Compound 790]"
  IC50: "100 to 1000 nM"
- COMPOUND: "CCN(c1nc(OC[C@@]23CCCN2C[C@H](F)C3)nc2c(F)c(-c3ccc(F)c4sc(N)c(C#N)c34)c(C(F)(F)F)cc12)[C@H]1CCN(C(=O)OC2CN(C(C)=O)C2)C1 (atropisomer, axis not shown) [Compound 721]"
  IC50: "< 100 nM"

Request: Give the measured IC50 for C/C=C/C(=O)N1CC[C@H](N(CC)c2nc(OC[C@@]34CCCN3C[C@H](F)C4)nc3c(F)c(-c4ccc(F)c5sc(N)c(C#N)c45)c(C(F)(F)F)cc23)C1 (atropisomer, axis not shown) [Compound 674]
Response: < 100 nM

Request: Give the measured IC50 for CCN(c1nc(OC[C@@]23CCCN2C[C@H](F)C3)nc2c(F)c(-c3ccc(F)c4sc(N)c(C#N)c34)c(C(F)(F)F)cc12)[C@@H]1C[C@@H](C)N(C(=O)C2COC2)C1 (atropisomer, axis not shown) [Compound 629]
Response: 100 to 1000 nM

Request: Give the measured IC50 for CCN(c1nc(OC[C@@]23CCCN2C[C@H](F)C3)nc2c(F)c(-c3ccc(F)c4sc(N)c(C#N)c34)c(C(F)(F)F)cc12)[C@H]1CCN(C(=O)[C@H](C)CO)C1 (atropisomer, axis not shown) [Compound 746]
Response: < 100 nM

Request: Give the measured IC50 for CCN(c1nc(OC[C@@]23CCCN2C[C@H](F)C3)nc2c(F)c(-c3ccc(F)c4sc(N)c(C#N)c34)c(C(F)(F)F)cc12)[C@H]1CCN(C(=O)O[C@@H]2CCOC2)C1 (atropisomer, axis not shown) [Compound 683]
Response: < 100 nM

====

- TARGET: Avi-KRAS G12R (1-169) GppNHp/RAF1 RBD-3xFLAG (52-151) (Homo sapiens, UniProt P01116, G12R)
- Construct: Avi-KRAS G12R (1-169)
- Sequence (P01116 1-169 isoform P01116-2 G12R): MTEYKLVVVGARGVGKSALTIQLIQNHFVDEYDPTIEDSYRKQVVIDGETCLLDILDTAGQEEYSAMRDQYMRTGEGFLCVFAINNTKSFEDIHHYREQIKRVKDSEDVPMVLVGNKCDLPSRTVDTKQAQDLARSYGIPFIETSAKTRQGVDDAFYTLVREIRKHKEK
- METHOD_SUMMARY: Raf1-KRAS G12R-GppNHP disruption HTRF assay (Biological Example 1)
- Format: binding
- CONDITION_NOTES: KRAS G12R, GppNHp-loaded; class symbols
- Description: A protein:protein interaction (PPI) Homogeneous Time Resolved Fluorescence (HTRF) assay was used to determine the effectiveness of compounds of the present disclosure in disrupting KRAS protein and effector RAF1 binding. The assay buffer included: 50 mM Tris pH 7.5, 100 mM NaCl, 5 mM MgCl2, 0.1% BSA, 0.01% Tween, and 10% DMSO. The bead buffer included: 50 mM Tris pH 7.5, and 0.01% Tween 20. […] Data was reported as percentage of activity, with DMSO as 100%. Data was plotted and analyzed using Prism 8.
MEASUREMENT_KIND: IC50

Study these solved cases before continuing.
- COMPOUND: "CCN(c1nc(OC[C@@]23CCCN2C[C@H](F)C3)nc2c(F)c(-c3ccc(F)c4sc(N)c(C#N)c34)c(C(F)(F)F)cc12)[C@H]1C[C@H](COC)N(C(=O)C2CC2)C1 (atropisomer, axis not shown) [Compound 696]"
  IC50: "< 100 nM"
- COMPOUND: "CN(c1nc(OC[C@@]23CCCN2C[C@H](F)C3)nc2c(F)c(-c3ccc(F)c4sc(N)c(C#N)c34)c(C(F)(F)F)cc12)[C@H]1CCN(C(=O)[C@@H]2CC2(F)F)C1 (atropisomer, axis not shown) [Compound 785]"
  IC50: "100 to 1000 nM"
- COMPOUND: "CCN(c1nc(OC[C@@]23CCCN2C[C@H](F)C3)nc2c(F)c(-c3ccc(F)c4sc(N)c(C#N)c34)c(C(F)(F)F)cc12)[C@H]1CCN(C(=O)c2cncnc2)C1 (atropisomer, axis not shown) [Compound 727]"
  IC50: "< 100 nM"

Now look at this entry.
Request: Under Avi-KRAS G12R (1-169) GppNHp/RAF1 RBD-3xFLAG (52-151) (Homo sapiens, UniProt P01116, G12R): report IC50 of CCN(c1nc(OC[C@@]23CCCN2C[C@H](F)C3)nc2c(F)c(-c3ccc(F)c4sc(N)c(C#N)c34)c(C(F)(F)F)cc12)[C@H]1C[C@H]2CCC(=O)N2C1 (atropisomer, axis not shown; (aR)) [Compound 573] .
Response: < 100 nM

====

Documented IC50 across a set of compounds
- TARGET: Avi-KRAS WT (1-169) GppNHp/RAF1 RBD-3xFLAG (52-151) (Homo sapiens, UniProt P01116)
- Construct: Avi-KRAS WT (1-169)
- Sequence (P01116 1-169 isoform P01116-2): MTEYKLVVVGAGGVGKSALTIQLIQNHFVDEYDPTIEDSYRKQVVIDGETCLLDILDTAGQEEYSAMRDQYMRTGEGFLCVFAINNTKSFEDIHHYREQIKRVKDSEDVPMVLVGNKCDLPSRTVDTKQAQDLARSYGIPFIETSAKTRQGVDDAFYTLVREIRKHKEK
- METHOD_SUMMARY: Raf1-KRAS WT-GppNHP disruption HTRF assay (Biological Example 1)
- Format: binding
- CONDITION_NOTES: KRAS WT, GppNHp-loaded; Table 11

- COMPOUND: "CN(c1nc(OCC23CCCN2CCC3)nc2c(F)c(-c3ccc(F)c4sc(N)c(C#N)c34)c(C(F)(F)F)cc12)[C@H]1C[C@@H](O)C1"
  IC50: "< 0.1 µM"
- COMPOUND: "CC(=O)N1CCCN(c2nc(OC[C@@]34CCCN3C[C@H](F)C4)nc3c(F)c(-c4ccc(F)c5sc(N)c(C#N)c45)c(C(F)(F)F)cc23)CC1"
  IC50: "0.1 to 1 µM"
- COMPOUND: "CCN(c1nc(OCC23CCCN2CCC3)nc2c(F)c(-c3ccc(F)c4sc(N)nc34)c(C(F)(F)F)cc12)[C@H]1C[C@@H](O)C1 (atropisomer, axis not shown)"
  IC50: "1 to 10 µM"
- COMPOUND: "N#Cc1c(N)sc2c(F)ccc(-c3c(C(F)(F)F)cc4c(N5CC[C@H](O)C5)nc(OC[C@@]56CCCN5C[C@H](F)C6)nc4c3F)c12"
  IC50: "0.1 to 1 µM"
- COMPOUND: "Nc1nc2c(-c3c(C(F)(F)F)cc4c(N5CC6CCC(C5)C6O)nc(OCC56CCCN5CCC6)nc4c3F)ccc(F)c2s1 (stereo not drawn)"
  IC50: "1 to 10 µM"

Now look at this entry.
Request: Under Avi-KRAS WT (1-169) GppNHp/RAF1 RBD-3xFLAG (52-151) (Homo sapiens, UniProt P01116): report IC50 of CN(c1nc(OC[C@@]23CCCN2C[C@H](F)C3)nc2c(F)c(-c3ccc(F)c4sc(N)c(C#N)c34)c(C(F)(F)F)cc12)[C@H]1C[C@@H](F)C1 (atropisomer, axis not shown) .
Response: 0.1 to 1 µM

====

- Test system: GP2d cells (KRAS G12D)
- METHOD_SUMMARY: Cell-based pERK HTRF assay in GP2d cell (Biological Example 2)
- CONDITION_NOTES: GP2d (KRAS G12D) cells, pERK HTRF
Documented IC50 across a set of compounds

Study these solved cases before continuing.
- COMPOUND: "N#Cc1c(N)sc2c(F)ccc(-c3c(C(F)(F)F)cc4c(N5CCn6nc(C(=O)N7CCC(O)C7)cc6C5)nc(OCC56CCCN5CC(F)C6)nc4c3F)c12 (centres unmarked)"
  IC50: "< 100 nM"
- COMPOUND: "N#Cc1c(N)sc2c(F)ccc(-c3c(C(F)(F)F)cc4c(N5CC6CC(C5)O6)nc(OC[C@@]56CCCN5C[C@H](F)C6)nc4c3F)c12 (single isomer, unassigned) [Compound 275]"
  IC50: "< 100 nM"
- COMPOUND: "N#Cc1c(N)sc2c(F)ccc(-c3c(C(F)(F)F)cc4c(N5CC6CC(C5)O6)nc(OC[C@@]56CCCN5C[C@H](F)C6)nc4c3F)c12 (single isomer, unassigned) [Compound 276]"
  IC50: "> 1000 nM"
- COMPOUND: "N#Cc1c(N)sc2c(F)ccc(-c3c(C(F)(F)F)cc4c(N5CCCN6C(=O)CCC6C5)nc(OCC56CCCN5CC(F)C6)nc4c3F)c12 (centres unmarked)"
  IC50: "100 to 1000 nM"

Request: Give the measured IC50 for CCC(=O)N1CC(N(C)c2nc(OCC34CCCN3CC(F)C4)nc3c(F)c(-c4ccc(F)c5sc(N)c(C#N)c45)c(C(F)(F)F)cc23)CC1C (centres unmarked)
Response: < 100 nM
